- assayedTarget: Caspase-3 (Homo sapiens);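 note: Dose-response selectivity test against caspase-3 for candidate inhibitors of sentrin-specific proteases (SENPs)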
- Sequence (P42574 whole entry): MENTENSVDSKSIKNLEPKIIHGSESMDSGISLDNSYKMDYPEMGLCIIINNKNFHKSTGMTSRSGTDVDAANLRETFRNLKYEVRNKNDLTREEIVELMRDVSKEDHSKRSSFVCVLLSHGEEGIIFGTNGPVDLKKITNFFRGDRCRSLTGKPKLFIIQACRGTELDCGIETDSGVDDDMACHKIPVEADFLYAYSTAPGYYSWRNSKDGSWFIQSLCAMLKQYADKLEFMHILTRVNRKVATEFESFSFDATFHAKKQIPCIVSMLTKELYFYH
- Type: functional
Active and inactive are the calls of the source.
Hi! Could you answer with just one of these? 1.0 = active, 0.0 = inactive

# smilesString, qualitativeLabel
measured = [
    ("Cc1ccc2oc(-c3ccco3)nc2c1", 1.0),
]

Lookup: What outcome does the record of this test show for Cc1c(NC(=O)c2ccc(NC(=O)C3CC3)cc2)cccc1C(=O)O ?
Found: 1.0

Lookup: Identify the outcome logged in this assay for the compound shown: O=S(=O)(Nc1ccc(-c2nc3cccnc3s2)cc1)c1ccc(Cl)s1
Found: 1.0

Lookup: Tell me the recorded outcome of this test for O=C(NC1(O)C(=O)c2ccccc2C1=O)c1c(Cl)cccc1Cl .
Found: 0.0

Lookup: Outcome logged for CN1C(=O)S/C(=C/c2ccc(OCc3cccc(C(=O)O)c3)cc2)C1=O in this assay:
Found: 1.0

Lookup: Entry COc1ccc2nc(Nc3nc4cc5c(cc4s3)OCCO5)sc2c1 : call = ?
Found: 1.0

Lookup: Give the logged outcome of this assay for the following compound: O=C(COC(=O)c1ccc([N+](=O)[O-])s1)Nc1ncc(C(F)(F)F)cc1Cl
Found: 1.0

Lookup: Just curious, what result did CCN(c1ccccc1)c1cc2ccccc2c(=O)[nH]1 get here?
Found: 1.0

Lookup: So what was the verdict on Brc1ccc(-c2cnc(-c3cccs3)o2)cc1 in this test?
Found: 1.0

Lookup: GET /call?item= O=C(NC1(O)C(=O)c2ccccc2C1=O)c1ccc(C(F)(F)F)cc1 returns the recorded outcome of this test.
Found: 1.0
